These entries and their values trace back to PubChem BioAssay AID2696.

The following compounds are shown together with reported IC50 values.
- EXPERIMENTAL_TARGET: Short transient receptor potential channel 6 (Mus musculus) (UniProt Q61143)
- Sequence (Q61143 whole entry, looked up): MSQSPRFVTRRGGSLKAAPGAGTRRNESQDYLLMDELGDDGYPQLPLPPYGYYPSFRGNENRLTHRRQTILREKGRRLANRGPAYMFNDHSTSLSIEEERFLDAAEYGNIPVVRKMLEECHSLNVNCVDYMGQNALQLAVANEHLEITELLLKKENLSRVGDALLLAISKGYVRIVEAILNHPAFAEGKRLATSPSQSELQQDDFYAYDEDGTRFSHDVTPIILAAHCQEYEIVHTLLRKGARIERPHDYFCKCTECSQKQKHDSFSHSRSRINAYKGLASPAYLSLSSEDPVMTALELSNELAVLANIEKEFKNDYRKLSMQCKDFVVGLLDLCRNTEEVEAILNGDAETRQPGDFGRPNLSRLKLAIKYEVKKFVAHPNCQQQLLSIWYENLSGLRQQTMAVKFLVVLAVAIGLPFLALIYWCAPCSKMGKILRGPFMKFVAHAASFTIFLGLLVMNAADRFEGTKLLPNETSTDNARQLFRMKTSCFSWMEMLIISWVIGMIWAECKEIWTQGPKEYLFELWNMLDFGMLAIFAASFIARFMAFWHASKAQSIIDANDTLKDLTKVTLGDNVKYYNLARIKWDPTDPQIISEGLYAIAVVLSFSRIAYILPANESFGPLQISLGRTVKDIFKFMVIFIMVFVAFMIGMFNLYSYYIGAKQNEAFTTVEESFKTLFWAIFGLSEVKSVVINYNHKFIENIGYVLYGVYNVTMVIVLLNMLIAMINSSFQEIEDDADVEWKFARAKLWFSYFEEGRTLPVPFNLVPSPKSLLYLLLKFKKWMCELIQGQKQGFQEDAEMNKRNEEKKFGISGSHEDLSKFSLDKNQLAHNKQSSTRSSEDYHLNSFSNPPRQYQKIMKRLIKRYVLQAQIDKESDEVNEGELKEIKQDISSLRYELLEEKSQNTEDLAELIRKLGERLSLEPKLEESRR
- PROTOCOL_NOTES: TRPC6 inhibitor potency, dose response, cell-based, mouse TRPC6, HEK293, membrane potential (AID 2696)
- CONDITION_CONTEXT: TRPC6-expressing HEK293 cells, membrane potential dye fluorescence, acetylcholine-stimulated

COMPOUND: Cc1ccc(Sc2c([N+](=O)[O-])c(C)nn2C)cc1
EXPERIMENTAL_TARGET: Short transient receptor potential channel 6 (Mus musculus) (UniProt Q61143)
IC50: 35.5 µM

COMPOUND: C[N+]12CCC(CC1)C(OC(=O)C(O)(c1ccccc1)c1ccccc1)C2 (stereo not drawn)
EXPERIMENTAL_TARGET: Short transient receptor potential channel 6 (Mus musculus) (UniProt Q61143)
IC50: 0.04 µM

COMPOUND: CCCCc1nc2ccccc2c(N)c1CCC (tested in a mixture with another compound)
EXPERIMENTAL_TARGET: Short transient receptor potential channel 6 (Mus musculus) (UniProt Q61143)
IC50: 70.8 µM

COMPOUND: CC(C)N1CCC2(CC1)N=C(c1ccc3c(c1)OCO3)CC(c1cc(Cl)ccc1O)N2 (stereo not drawn)
EXPERIMENTAL_TARGET: Short transient receptor potential channel 6 (Mus musculus) (UniProt Q61143)
IC50: 70.8 µM

COMPOUND: C[C@H]1OC[C@@H](C[N+](C)(C)C)O1
EXPERIMENTAL_TARGET: Short transient receptor potential channel 6 (Mus musculus) (UniProt Q61143)
IC50: 4.47 µM

COMPOUND: CCN(CC)c1ccc2cc(C(N)=O)/c(=N\NC(=O)c3ccncc3)oc2c1
EXPERIMENTAL_TARGET: Short transient receptor potential channel 6 (Mus musculus) (UniProt Q61143)
IC50: 50.1 µM

COMPOUND: Cc1cc(N2CCN(C)CC2)ccc1NC(=O)c1ccc(-c2ccc(Cl)cc2)o1
EXPERIMENTAL_TARGET: Short transient receptor potential channel 6 (Mus musculus) (UniProt Q61143)
IC50: 44.7 µM

COMPOUND: COC(=O)c1[nH]c2ccccc2c1NC(=O)CN1CCN(C/C=C/c2ccccc2)CC1
EXPERIMENTAL_TARGET: Short transient receptor potential channel 6 (Mus musculus) (UniProt Q61143)
IC50: 50.1 µM

COMPOUND: CC(C)[N+](C)(CCOC(=O)C1c2ccccc2Oc2ccccc21)C(C)C
EXPERIMENTAL_TARGET: Short transient receptor potential channel 6 (Mus musculus) (UniProt Q61143)
IC50: 0.07 µM

COMPOUND: Cc1c(C)n(Cc2ccccc2)c2ccc(C(=O)OCCCN(C)C)cc12
EXPERIMENTAL_TARGET: Short transient receptor potential channel 6 (Mus musculus) (UniProt Q61143)
IC50: 44.7 µM

COMPOUND: Cc1cccc(OCc2nnc(SCc3cc(=O)n4cc(Br)ccc4n3)o2)c1
EXPERIMENTAL_TARGET: Short transient receptor potential channel 6 (Mus musculus) (UniProt Q61143)
IC50: 70.8 µM

COMPOUND: CC(C)Cn1c(=O)c(C(=O)Nc2ccncc2)c(O)c2ccccc21
EXPERIMENTAL_TARGET: Short transient receptor potential channel 6 (Mus musculus) (UniProt Q61143)
IC50: 3.16 µM

COMPOUND: CCCCCCCCCCCCn1ccc(=N)cc1
EXPERIMENTAL_TARGET: Short transient receptor potential channel 6 (Mus musculus) (UniProt Q61143)
IC50: 35.5 µM

COMPOUND: CCOc1ccc(NC(=O)c2c(NC(=O)CN3CCN(C)CC3)sc3c2CCC3)cc1
EXPERIMENTAL_TARGET: Short transient receptor potential channel 6 (Mus musculus) (UniProt Q61143)
IC50: 44.7 µM

COMPOUND: CC1=NN(c2ccccc2)C(=O)/C1=C/C=C/c1ccc(N(C)C)cc1
EXPERIMENTAL_TARGET: Short transient receptor potential channel 6 (Mus musculus) (UniProt Q61143)
IC50: 44.7 µM

COMPOUND: Cc1cccc(CCNCc2cc3cccc(C)c3[nH]c2=O)c1
EXPERIMENTAL_TARGET: Short transient receptor potential channel 6 (Mus musculus) (UniProt Q61143)
IC50: 50.1 µM

COMPOUND: CN1C2CCC1CC(OC(c1ccccc1)c1ccccc1)C2 (stereo not drawn)
EXPERIMENTAL_TARGET: Short transient receptor potential channel 6 (Mus musculus) (UniProt Q61143)
IC50: 0.32 µM

COMPOUND: C[n+]1ccccc1/C=C/c1ccc(F)c(F)c1
EXPERIMENTAL_TARGET: Short transient receptor potential channel 6 (Mus musculus) (UniProt Q61143)
IC50: 44.7 µM

COMPOUND: COc1ccc(OC)c2sc(N(CCN(C)C)C(=O)c3ccc4ccccc4c3)nc12
EXPERIMENTAL_TARGET: Short transient receptor potential channel 6 (Mus musculus) (UniProt Q61143)
IC50: 70.8 µM

COMPOUND: CN(C)CCn1c(C(=O)Nc2ccccc2)cc2ccccc21
EXPERIMENTAL_TARGET: Short transient receptor potential channel 6 (Mus musculus) (UniProt Q61143)
IC50: 39.8 µM

COMPOUND: Oc1ccc(CN2CCc3ccccc3C2)c2cccnc12
EXPERIMENTAL_TARGET: Short transient receptor potential channel 6 (Mus musculus) (UniProt Q61143)
IC50: 15.8 µM

COMPOUND: Cc1c(C(=O)OCCN2CCCCC2)oc2ccccc12
EXPERIMENTAL_TARGET: Short transient receptor potential channel 6 (Mus musculus) (UniProt Q61143)
IC50: 25.1 µM

COMPOUND: Nc1cccc2nc3ccccc3cc12
EXPERIMENTAL_TARGET: Short transient receptor potential channel 6 (Mus musculus) (UniProt Q61143)
IC50: 50.1 µM
